Target: T1, FX activation peptide 12-mer … (human)
T1 sequence (peptide, C-terminally conjugated to biotin): PTENPFDLLDFN
Experiment: peptide ELISA
MEASURED_PROPERTY: ELISA signal relative to background
The reply should be a number, written without any unit.

Solved entries:
BINDER	ELISA signal relative to background
Nb 730C03 (VHH, not shown: small tags and cut ends) VHH: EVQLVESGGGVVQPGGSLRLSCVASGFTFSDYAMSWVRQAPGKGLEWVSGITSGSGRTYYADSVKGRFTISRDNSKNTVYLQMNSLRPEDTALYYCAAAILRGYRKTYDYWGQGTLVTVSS	1.62
Nb 701D07 (VHH, not shown: small tags and cut ends) VHH: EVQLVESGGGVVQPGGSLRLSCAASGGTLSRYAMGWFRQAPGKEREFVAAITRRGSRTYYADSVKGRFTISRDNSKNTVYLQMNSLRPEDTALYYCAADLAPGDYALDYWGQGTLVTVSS	1.29
Nb 721E08 (VHH, not shown: small tags and cut ends) VHH: EVQLVESGGGVVQPGGSLRLSCAASGRTFSTYSMGWFRQAPGKEREFVAAITRRGSRTYYADSVKGRFTISRDNSKNTVYLQMNSLRPEDTALYYCAADRRPADSYLDYWGQGTLVTVSS	2.35

Query: Supply measured ELISA signal relative to background of Nb 701C06 (VHH, not shown: small tags and cut ends) VHH: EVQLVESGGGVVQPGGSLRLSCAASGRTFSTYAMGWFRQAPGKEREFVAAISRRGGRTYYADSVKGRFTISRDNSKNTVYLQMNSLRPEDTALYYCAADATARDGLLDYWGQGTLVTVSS in your reply.
Reply: 1.61
